Values compiled from patent US20210238260A1.

measured-on: T1, Factor VIIIa (FVIIIa), from recombinant FVIII (Kogenate FS; Bayer healthcare) activated with alpha-thrombin (UniProt P00451 20-2351)
T1 sequence (looked up): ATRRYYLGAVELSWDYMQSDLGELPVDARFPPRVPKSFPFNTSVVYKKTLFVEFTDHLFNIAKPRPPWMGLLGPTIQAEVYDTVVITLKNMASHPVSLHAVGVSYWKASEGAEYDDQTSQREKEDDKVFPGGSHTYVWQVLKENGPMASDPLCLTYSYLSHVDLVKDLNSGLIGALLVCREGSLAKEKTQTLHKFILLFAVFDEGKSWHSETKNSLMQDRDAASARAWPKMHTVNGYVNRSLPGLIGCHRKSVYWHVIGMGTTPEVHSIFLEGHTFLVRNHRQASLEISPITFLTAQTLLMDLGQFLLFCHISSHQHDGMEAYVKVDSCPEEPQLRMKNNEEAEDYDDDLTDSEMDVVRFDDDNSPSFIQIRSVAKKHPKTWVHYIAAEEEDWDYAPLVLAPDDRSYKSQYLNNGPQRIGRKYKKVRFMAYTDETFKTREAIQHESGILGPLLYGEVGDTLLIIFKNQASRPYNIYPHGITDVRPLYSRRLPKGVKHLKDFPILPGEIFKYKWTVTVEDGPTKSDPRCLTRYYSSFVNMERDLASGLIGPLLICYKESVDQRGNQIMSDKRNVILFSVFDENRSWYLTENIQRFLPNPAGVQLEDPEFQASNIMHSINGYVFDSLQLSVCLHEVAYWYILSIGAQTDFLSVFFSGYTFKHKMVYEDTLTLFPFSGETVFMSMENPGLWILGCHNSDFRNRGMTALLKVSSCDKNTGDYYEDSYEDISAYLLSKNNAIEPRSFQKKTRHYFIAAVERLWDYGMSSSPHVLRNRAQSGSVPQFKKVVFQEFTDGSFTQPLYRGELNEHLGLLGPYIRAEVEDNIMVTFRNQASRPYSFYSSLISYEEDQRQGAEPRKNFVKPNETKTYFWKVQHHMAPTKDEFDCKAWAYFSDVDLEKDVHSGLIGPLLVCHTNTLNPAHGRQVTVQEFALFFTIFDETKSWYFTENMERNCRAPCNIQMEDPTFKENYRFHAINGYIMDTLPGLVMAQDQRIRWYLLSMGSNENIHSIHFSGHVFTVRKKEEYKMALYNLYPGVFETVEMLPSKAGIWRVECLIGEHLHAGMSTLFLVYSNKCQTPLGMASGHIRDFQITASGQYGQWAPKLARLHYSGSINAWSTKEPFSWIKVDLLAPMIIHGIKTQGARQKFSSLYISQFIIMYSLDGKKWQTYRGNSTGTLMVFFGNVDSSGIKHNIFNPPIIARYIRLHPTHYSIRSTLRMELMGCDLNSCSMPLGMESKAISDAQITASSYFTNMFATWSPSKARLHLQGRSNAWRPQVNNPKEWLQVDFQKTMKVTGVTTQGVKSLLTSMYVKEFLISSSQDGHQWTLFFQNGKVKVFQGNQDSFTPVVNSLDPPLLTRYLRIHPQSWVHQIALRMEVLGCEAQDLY
test-summary: ratio of KD-app of Catalyst Biosciences WT FIXa to KD-app of the variant, same Xase assay

{"binder": "FIXa variant Y155F/K228N/R318Y/R338E/R403E/E410N (enzyme) light: YNSGKLEEFVQGNLERECMEEKCSFEEAREVFENTERTTEFWKQYVDGDQCESNPCLNGGSCKDDINSYECWCPFGFEGKNCELDVTCNIKNGRCEQFCKNSADNKVVCSCTEGYRLAENQKSCEPAVPFPCGRVSVSQTSKLTR heavy: VVGGEDAKPGQFPWQVVLNGKVDAFCGGSIVNEKWIVTAAHCVETGVNITVVAGEHNIEETEHTEQKRNVIRIIPHHNYNAAINKYNHDIALLELDEPLVLNSYVTPICIADKEYTNIFLKFGSGYVSGWGRVFHKGYSALVLQYLRVPLVDRATCLESTKFTIYNNMFCAGFHEGGRDSCQGDSGGPHVTEVEGTSFLTGIISWGEECAMKGKYGIYTKVSEYVNWIKNKTKLT", "unit-name": "fold", "KD-WT/KD-mut": 3.1}
